Where do these numbers come from? They come from patent US20240117334A1.

- system: T1, Plasma antichymotrypsin (ACT) (UniProt P01011 24-423)
- T1 construct: also called plasma ACT
- T1 sequence (looked up): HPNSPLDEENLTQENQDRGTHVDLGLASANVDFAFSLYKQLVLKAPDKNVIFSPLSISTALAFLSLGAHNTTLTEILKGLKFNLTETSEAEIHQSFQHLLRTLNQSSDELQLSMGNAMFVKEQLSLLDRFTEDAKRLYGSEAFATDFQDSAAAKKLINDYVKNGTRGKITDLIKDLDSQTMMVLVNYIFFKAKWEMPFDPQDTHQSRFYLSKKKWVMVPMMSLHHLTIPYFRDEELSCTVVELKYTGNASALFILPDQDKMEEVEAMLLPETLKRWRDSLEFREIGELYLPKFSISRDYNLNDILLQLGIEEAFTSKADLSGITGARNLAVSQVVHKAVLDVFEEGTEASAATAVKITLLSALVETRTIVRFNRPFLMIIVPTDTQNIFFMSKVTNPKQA
- protocol_summary: serpin inhibition of the protease
readout_label: kapp (M⁻¹ s⁻¹)

INSERT INTO assay_data (binder, units_text, experimental_value) VALUES
  ('chymase C22S/P38Q/V138I/V183I/L199V/A226R/F228V (enzyme) IIGGTESKPHSRPYMAYLEIVTSNGQSKFCGGFLIRRNFVLTAAHCAGRSITVTLGAHNITEEEDTWQKLEVIKQFRHPKYNTSTLHHDIMLLKLKEKASLTLAVGTLPFPSQFNFVPPGRMCRIAGWGRTGVLKPGSDTLQEVKLRLMDPQACSHFRDFDHNLQLCIGNPRKTKSAFKGDSGGPVLCAGVAQGIVSYGRSDAKPPRVVTRISHYRPWINQILQAN', 'M⁻¹ s⁻¹', 269),
  ('chymase C22S (enzyme, For all chymase variants: mutation names are in chymotrypsin numbering) IIGGTESKPHSRPYMAYLEIVTSNGPSKFCGGFLIRRNFVLTAAHCAGRSITVTLGAHNITEEEDTWQKLEVIKQFRHPKYNTSTLHHDIMLLKLKEKASLTLAVGTLPFPSQFNFVPPGRMCRVAGWGRTGVLKPGSDTLQEVKLRLMDPQACSHFRDFDHNLQLCVGNPRKTKSAFKGDSGGPLLCAGVAQGIVSYGRSDAKPPAVFTRISHYRPWINQILQAN', 'M⁻¹ s⁻¹', 31200),
  ('chymase C22S/K40L/F41K/L99H/F173Y/S218L/A226R (enzyme) IIGGTESKPHSRPYMAYLEIVTSNGPSLKCGGFLIRRNFVLTAAHCAGRSITVTLGAHNITEEEDTWQKLEVIKQFRHPKYNTSTHHHDIMLLKLKEKASLTLAVGTLPFPSQFNFVPPGRMCRVAGWGRTGVLKPGSDTLQEVKLRLMDPQACSHYRDFDHNLQLCVGNPRKTKSAFKGDSGGPLLCAGVAQGIVSYGRLDAKPPRVFTRISHYRPWINQILQAN', 'M⁻¹ s⁻¹', 147);
